Biological target: human TAAR5 (Homo sapiens)
Sequence (O14804 whole entry): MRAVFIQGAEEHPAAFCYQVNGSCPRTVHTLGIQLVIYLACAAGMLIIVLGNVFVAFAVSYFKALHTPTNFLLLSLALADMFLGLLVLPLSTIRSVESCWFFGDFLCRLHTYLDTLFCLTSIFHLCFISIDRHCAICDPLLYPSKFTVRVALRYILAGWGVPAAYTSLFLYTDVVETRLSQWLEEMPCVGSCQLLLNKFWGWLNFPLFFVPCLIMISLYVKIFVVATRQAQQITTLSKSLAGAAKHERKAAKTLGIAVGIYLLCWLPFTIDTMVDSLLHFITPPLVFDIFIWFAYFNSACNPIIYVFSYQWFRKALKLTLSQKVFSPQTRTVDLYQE
ASSAY_READOUT: EC50 (µM)

CCN(C)C ... 1.2

Values were extracted from paper PMC3711460.
